Origin of values: paper PMC4118831

Measured pKd accompanies every entry in the list below.
- Target desc: serum amyloid P component (SAP) (Homo sapiens)
- Construct: gene APCS; pentamer purified from serum; 204-residue subunits
- Sequence (P02743 20-223): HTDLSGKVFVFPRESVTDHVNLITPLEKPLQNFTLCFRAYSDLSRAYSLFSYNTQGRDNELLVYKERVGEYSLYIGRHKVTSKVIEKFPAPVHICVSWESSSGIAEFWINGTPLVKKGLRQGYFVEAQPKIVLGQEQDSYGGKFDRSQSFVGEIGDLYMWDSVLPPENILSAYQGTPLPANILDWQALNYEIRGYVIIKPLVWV
- Test protocol: ITC; crystal structure
- Assay type: binding
Interpret pKd as the negative base-10 log of the concentration measured in mol/L.

* CC(=O)N1CCC[C@@H]1C(=O)O [N-acetyl-D-proline] | 4.73

Field: next compound
Give the reported pKd for this compound. CC(=O)N1CCC[C@H]1C(=O)O [N-acetyl-L-proline]
3.49
